Molecular target: Polyunsaturated fatty acid 5-lipoxygenase (Homo sapiens) (UniProt P09917)
Sequence (whole entry): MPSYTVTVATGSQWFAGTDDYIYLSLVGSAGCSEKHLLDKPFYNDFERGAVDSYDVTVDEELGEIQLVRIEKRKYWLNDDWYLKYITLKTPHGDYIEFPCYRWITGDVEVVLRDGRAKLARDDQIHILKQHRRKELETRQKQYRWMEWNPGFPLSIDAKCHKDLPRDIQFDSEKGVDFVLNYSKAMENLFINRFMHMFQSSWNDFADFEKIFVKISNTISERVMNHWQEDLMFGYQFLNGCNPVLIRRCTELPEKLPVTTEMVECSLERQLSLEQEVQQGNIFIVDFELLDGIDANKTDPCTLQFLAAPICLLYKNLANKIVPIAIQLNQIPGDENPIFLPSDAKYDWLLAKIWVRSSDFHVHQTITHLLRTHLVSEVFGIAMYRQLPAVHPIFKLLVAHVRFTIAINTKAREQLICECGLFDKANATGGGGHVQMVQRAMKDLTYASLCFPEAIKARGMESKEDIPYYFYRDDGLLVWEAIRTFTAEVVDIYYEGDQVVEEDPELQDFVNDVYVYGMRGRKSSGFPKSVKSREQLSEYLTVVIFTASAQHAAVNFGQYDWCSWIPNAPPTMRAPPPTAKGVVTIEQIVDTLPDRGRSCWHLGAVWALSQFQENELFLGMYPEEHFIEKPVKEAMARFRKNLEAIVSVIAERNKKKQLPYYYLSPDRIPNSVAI
Assay: Inhibition of recombinant human 5-LOX expressed in Escherichia coli BL21 at 10 uM using arachidonic acid as substrate by UV-vis spectrophotometric method relative to control
readout-label: inhibition (%)

# annotated cases, reported inhibition shown
smiles-repr: O=C(NC(=S)N1CCCCC1)c1ccccc1
numeric-readout: 56.8
--
smiles-repr: O=C(NC(=S)N(c1ccccc1)c1ccccc1)c1ccccc1
numeric-readout: 73.3
--
smiles-repr: O=C(c1ccccc1)c1sc(N2CCCCC2)nc1-c1ccccc1
numeric-readout: 85.2
--
smiles-repr: CN(C(=S)NC(=O)c1ccccc1)c1ccccc1
numeric-readout: 78.7
--
smiles-repr: O=C(NC(=S)N1CCN(c2ccccc2)CC1)c1ccccc1
numeric-readout: 91.3

a = O=C(NC(=S)N1CCCCC1)c1ccc(F)cc1
b = O=C(c1ccccc1)c1sc(N2CCOCC2)nc1-c1ccc(F)cc1
// compare measured inhibition between a and b ; output the lower one Kindly state the label of the option you pick.
b

====

Biological target: UniProt:P09917
Sequence (whole entry): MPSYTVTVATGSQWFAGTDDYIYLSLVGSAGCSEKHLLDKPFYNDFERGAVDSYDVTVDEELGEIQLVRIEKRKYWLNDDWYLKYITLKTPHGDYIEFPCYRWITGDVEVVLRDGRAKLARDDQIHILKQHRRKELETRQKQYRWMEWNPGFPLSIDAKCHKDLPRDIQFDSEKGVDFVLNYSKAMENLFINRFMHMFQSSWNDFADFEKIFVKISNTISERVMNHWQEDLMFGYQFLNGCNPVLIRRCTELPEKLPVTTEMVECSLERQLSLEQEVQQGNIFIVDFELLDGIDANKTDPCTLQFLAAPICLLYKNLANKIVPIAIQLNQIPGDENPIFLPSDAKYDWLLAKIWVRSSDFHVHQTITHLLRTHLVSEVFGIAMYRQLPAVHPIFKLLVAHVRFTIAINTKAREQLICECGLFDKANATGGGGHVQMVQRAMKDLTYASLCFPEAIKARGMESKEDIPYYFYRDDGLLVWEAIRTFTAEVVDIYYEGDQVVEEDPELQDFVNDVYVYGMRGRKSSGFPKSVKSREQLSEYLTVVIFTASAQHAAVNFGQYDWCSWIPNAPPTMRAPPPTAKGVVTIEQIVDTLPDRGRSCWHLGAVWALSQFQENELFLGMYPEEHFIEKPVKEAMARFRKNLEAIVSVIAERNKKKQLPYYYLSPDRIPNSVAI
Test: Inhibition of recombinant human 5-LOX expressed in Escherichia coli BL21 at 10 uM using arachidonic acid as substrate by UV-vis spectrophotometric method relative to control
readout-label: inhibition (%)

# annotated cases, reported inhibition shown
smiles-repr: O=C(c1ccccc1)c1sc(N2CCN(c3ccccc3)CC2)nc1-c1ccc([N+](=O)[O-])cc1
numeric-readout: 67.8
//
smiles-repr: COc1ccc(C(=O)NC(=S)N2CCN(c3ccccc3)CC2)cc1
numeric-readout: 36.8
//
smiles-repr: O=C(NC(=S)N1CCOCC1)c1ccccc1
numeric-readout: 79.4

P = COc1ccc(-c2nc(N3CCCCC3)sc2C(=O)c2ccccc2)cc1
Q = COc1ccc(-c2nc(N(c3ccccc3)c3ccccc3)sc2C(=O)c2ccccc2)cc1
R = O=C(NC(=S)N1CCN(c2ccccc2)CC1)c1ccc(F)cc1
Kindly order the items shown according to inhibition, from the highest value down. To answer, write out the labels according to the requested order.
Q, P, R

A = O=C(c1ccccc1)c1sc(N2CCCC2)nc1-c1ccccc1
B = O=C(c1ccccc1)c1sc(N(c2ccccc2)c2ccccc2)nc1-c1ccccc1
// compare measured inhibition between A and B ; output the lower one Kindly state the label of the option you pick.
B

1 = COc1ccc(C(=O)NC(=S)N2CCCCC2)cc1
2 = O=C(c1ccccc1)c1sc(N2CCN(c3ccccc3)CC2)nc1-c1ccccc1
3 = O=C(NC(=S)N1CCCC1)c1ccccc1
Arrange the 3 molecules by rising inhibition, starting with the smallest. To answer, write out the labels according to the requested order.
3, 2, 1
(3: 24.5%, 2: 38.3%, 1: 86%)

P = CN(Cc1ccccc1)C(=S)NC(=O)c1ccccc1
Q = CN(Cc1ccccc1)c1nc(-c2ccccc2)c(C(=O)c2ccccc2)s1
Lab notebook, comparison: P versus Q , higher inhibition goes to which? Kindly state the label of the option you pick.
P
(P: 80.7%, Q: 53.1%)
